These data points were gathered from patent US20090304651A1.

# assayed.target: T1, recombinant human IGF-II (Insulin-like Growth Factor II) (human, UniProt P01344 25-91, biotinylated (Biotinyl-IGF-II, GroPep) where immobilised in SPR, site not stated; not biotinylated in ITC and as SPR analyte)
# T1 construct: also called IGF2; IGF-2
# T1 sequence (P01344 25-91 limits assumed): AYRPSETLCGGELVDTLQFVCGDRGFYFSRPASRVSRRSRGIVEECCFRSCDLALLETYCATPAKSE
# procedure.summary: SPR, steady-state KD relative to wild type
reported.property: Relative Affinity

Some solved entries appear below for comparison.
binder	assay.result
IGF2R domain 11 with histidine at position 1544 (E1544H) (receptor) NEHDDCQVTNPSTGHLFDLSSLSGRAGFTAAYSHKGLVYMSICGENENCPPGVGACFGQTRISVGKANKRLRYVDQVLQLVYKDGSPCPSKSGLSYKSVISFVCRPEAGPTNRPMLISLDKQTCTLFFSWHTPLACEQATHHHHHH	3.07 fold (wild type = 1.00)
IGF2R domain 11 with tyrosine at position 1544 (E1544Y) (receptor) NEHDDCQVTNPSTGHLFDLSSLSGRAGFTAAYSYKGLVYMSICGENENCPPGVGACFGQTRISVGKANKRLRYVDQVLQLVYKDGSPCPSKSGLSYKSVISFVCRPEAGPTNRPMLISLDKQTCTLFFSWHTPLACEQATHHHHHH	1.8 fold (wild type = 1.00)
wild type IGF2R domain 11 (amino acids 1511-1650) with C-terminal His6 tag, from Pichia pastoris (receptor, also called WT; wild type domain 11) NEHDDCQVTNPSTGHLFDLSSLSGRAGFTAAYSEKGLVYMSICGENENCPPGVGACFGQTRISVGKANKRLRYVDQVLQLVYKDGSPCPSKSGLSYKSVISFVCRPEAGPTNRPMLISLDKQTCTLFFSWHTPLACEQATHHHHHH	1 fold (wild type = 1.00)
IGF2R domain 11 with isoleucine at position 1544 (E1544I) (receptor) NEHDDCQVTNPSTGHLFDLSSLSGRAGFTAAYSIKGLVYMSICGENENCPPGVGACFGQTRISVGKANKRLRYVDQVLQLVYKDGSPCPSKSGLSYKSVISFVCRPEAGPTNRPMLISLDKQTCTLFFSWHTPLACEQATHHHHHH	2.43 fold (wild type = 1.00)
IGF2R domain 11 with glutamine at position 1544 (E1544Q) (receptor) NEHDDCQVTNPSTGHLFDLSSLSGRAGFTAAYSQKGLVYMSICGENENCPPGVGACFGQTRISVGKANKRLRYVDQVLQLVYKDGSPCPSKSGLSYKSVISFVCRPEAGPTNRPMLISLDKQTCTLFFSWHTPLACEQATHHHHHH	3.87 fold (wild type = 1.00)

Look at each binder and report its Relative Affinity.
1. IGF2R domain 11 E1544A (amino acids 1511-1650, C-terminal His6 tag, from Pichia pastoris) (receptor) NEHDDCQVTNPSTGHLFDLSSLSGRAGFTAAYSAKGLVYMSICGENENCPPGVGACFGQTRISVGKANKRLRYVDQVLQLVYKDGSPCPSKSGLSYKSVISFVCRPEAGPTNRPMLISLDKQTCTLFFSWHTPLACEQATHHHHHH
2. IGF2R domain 11 with aspartate at position 1544 (E1544D) (receptor) NEHDDCQVTNPSTGHLFDLSSLSGRAGFTAAYSDKGLVYMSICGENENCPPGVGACFGQTRISVGKANKRLRYVDQVLQLVYKDGSPCPSKSGLSYKSVISFVCRPEAGPTNRPMLISLDKQTCTLFFSWHTPLACEQATHHHHHH

["2.79 fold (wild type = 1.00)", "0.48 fold (wild type = 1.00)"]
